System: 1a Pi-Rluc replicon with Q30R in genotype 1a NS5A
protocol.summary: microbe, parasite or virus in culture
Type: cell-based, HCV
reported.conditions: Hepatitis C virus, read-out: 1a Q30R (nM)
Classify on EC50 using low (below 0.03 nM), medium (0.03 nM to below 0.09 nM), high (0.09 nM or more)

compound: COC(=O)N[C@H](C(=O)N1CCC[C@H]1c1ncc(-c2ccc3c(c2)COc2cc4c(cc2-3)CCc2[nH]c([C@@H]3CCCN3C(=O)[C@H](NC(=O)OC)c3ccccc3)nc2-4)[nH]1)C(C)C
qualitative.label: high
//
compound: COC[C@H]1C[C@@H](c2ncc(-c3ccc4c(c3)COc3cc5c(ccc6nc([C@@H]7C[C@H]8C[C@H]8N7C(=O)[C@H](NC(=O)OC)c7ccccc7)[nH]c65)cc3-4)[nH]2)N(C(=O)[C@@H](NC(=O)OC)C(C)C)C1
qualitative.label: low
//
compound: CC[C@H](C)[C@H](NC(=O)OC)C(=O)N1[C@@H](C)CC[C@H]1c1ncc(-c2ccc3c(c2)COc2cc4c(ccc5nc([C@@H]6C[C@H](COC)CN6C(=O)[C@H](NC(=O)OC)c6ccccc6)[nH]c54)cc2-3)[nH]1
qualitative.label: low
//
compound: COC(=O)N[C@H](C(=O)N1[C@@H](C)CC[C@H]1c1ncc(-c2ccc3c(c2)COc2cc4c(ccc5nc([C@@H]6CC[C@H](C)N6C(=O)[C@@H](NC(=O)OC)C(C)C)[nH]c54)cc2-3)[nH]1)C(C)C
qualitative.label: high

Request: Hi, small favor: classify CCC(C)[C@H](NC(=O)OC)C(=O)N1C[C@@H](C)CC1c1ncc(-c2ccc3c(c2)COc2cc4c(ccc5nc([C@@H]6CC(COC)CN6C(=O)[C@H](NC(=O)OC)c6ccccc6)[nH]c54)cc2-3)[nH]1 (stereo in doubt) by its EC50 when you get a moment.
Response: low

---

System: NS5A chimeric genotype 2a JFH-1 replicon with genotype 2b MD2b-1 strain NS5A gene (M31 present)
protocol.summary: microbe, parasite or virus in culture
Format: cell-based, HCV
reported.conditions: Hepatitis C virus, read-out: 2b (s) (nM)
Consider the following compounds; for each one, report its EC50.
Answers are plain numbers, in nM.

// solved cases for EC50 follow
structure.string: COC[C@H]1C[C@@H](c2nc3ccc4cc5c(cc4c3[nH]2)OCc2cc(-c3cnc([C@@H]4C[C@H](C)CN4C(=O)[C@H](NC(=O)OC)c4ccccc4)[nH]3)ccc2-5)N(C(=O)[C@@H](NC(=O)OC)C(C)C)C1
display.unit: nM
numeric.readout: 0.117

structure.string: COC(=O)N[C@H](C(=O)N1C[C@@H](C)C[C@H]1c1ncc(-c2ccc3c(c2)COc2cc4c(ccc5nc([C@@H]6CC[C@H](C)N6C(=O)[C@@H](NC(=O)OC)C(C)C)[nH]c54)cc2-3)[nH]1)C(C)C
display.unit: nM
numeric.readout: 0.043

structure.string: COC(=O)N[C@H](C(=O)N1C[C@@H](C)C[C@H]1c1nc2ccc3cc4c(cc3c2[nH]1)OCc1cc(-c2cnc([C@@H]3CC[C@H](C)N3C(=O)[C@@H](NC(=O)OC)C(C)C)[nH]2)ccc1-4)C(C)C
display.unit: nM
numeric.readout: 0.191

Field: next compound
Request: # input compound: COC(=O)N[C@H](C(=O)N1CCC[C@H]1c1nc2ccc3cc4c(cc3c2[nH]1)OCc1cc(-c2cnc([C@@H]3CCCN3C(=O)[C@H](NC(=O)C3CC3)c3ccccc3)[nH]2)ccc1-4)C(C)C ; wanted: its EC50
Response: 0.013
